src = patent US20250304640A1

Target: T1, IL10RA (UniProt Q13651 22-578, limits assumed)
T1 sequence (looked up): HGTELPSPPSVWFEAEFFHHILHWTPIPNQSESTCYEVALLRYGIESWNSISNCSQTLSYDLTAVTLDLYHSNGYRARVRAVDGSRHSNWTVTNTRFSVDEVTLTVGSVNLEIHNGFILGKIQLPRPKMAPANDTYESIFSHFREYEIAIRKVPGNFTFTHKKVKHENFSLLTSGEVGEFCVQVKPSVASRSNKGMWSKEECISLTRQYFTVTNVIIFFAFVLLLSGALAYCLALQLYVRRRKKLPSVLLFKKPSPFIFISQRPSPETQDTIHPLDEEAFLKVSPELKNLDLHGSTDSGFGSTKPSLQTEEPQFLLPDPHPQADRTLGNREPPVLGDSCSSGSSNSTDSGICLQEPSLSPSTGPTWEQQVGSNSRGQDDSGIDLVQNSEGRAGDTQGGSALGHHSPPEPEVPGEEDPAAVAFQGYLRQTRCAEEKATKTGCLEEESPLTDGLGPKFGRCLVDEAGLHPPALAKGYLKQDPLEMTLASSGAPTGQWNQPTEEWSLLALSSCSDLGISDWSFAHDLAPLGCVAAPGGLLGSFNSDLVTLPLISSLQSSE
Assay: cell-based or functional assay
For each entry below, report its EC-50, HEK-Blue IL-10 reporter cells value.
// no unit string in output, number only

Q: Look up EC-50, HEK-Blue IL-10 reporter cells of ORK10-003-HiBit R24A (ligand) MTQSENSCTHFPGNLPNMLRDLRDAFSRVKTFFQMKDQLDNLLLKESLLEDFKGYLGCQALSEMIQFYLEEVMPQAENQDPDIKAHVNSLGENLKTLRLRLRRCHRFLPCENKSKAVEQVKNAFNKLQEKGIYKAMSEFDIFINYIEAYLYKTITPEFANMLADLRDAFSRVKTFFQMKDQLDNLLLKESLLEDFKGYLGCQALSEMIQFYLEEVMPQAENQDPDIKAHVNSLGENLKTLRLRLRRCHRFLPCENKSKAVEQVKNAFNKLQEKGIYKAMSEFDIFINYIEAYMTMGGVSGWRLFKKIS and report it.
Result: 1.51e-10

Q: Look up EC-50, HEK-Blue IL-10 reporter cells of ORK10-003-HiBit K34A (ligand) MTQSENSCTHFPGNLPNMLRDLRDAFSRVKTFFQMKDQLDNLLLKESLLEDFKGYLGCQALSEMIQFYLEEVMPQAENQDPDIKAHVNSLGENLKTLRLRLRRCHRFLPCENKSKAVEQVKNAFNKLQEKGIYKAMSEFDIFINYIEAYLYKTITPEFANMLRDLRDAFSRVATFFQMKDQLDNLLLKESLLEDFKGYLGCQALSEMIQFYLEEVMPQAENQDPDIKAHVNSLGENLKTLRLRLRRCHRFLPCENKSKAVEQVKNAFNKLQEKGIYKAMSEFDIFINYIEAYMTMGGVSGWRLFKKIS and report it.
Result: 9.22e-10
